- assay-explanation: Cmax in male C57BL/6J mouse at 10 mg/kg, po by LC-MS analysis
- Format: ADME, organism-based
- measurement-context: in vivo
readout-kind: Cmax (ng/mL)
// units = ng/mL; emit number, no label

Item: "CCCCC(=O)N1CC2(C1)CN(c1ccccc1-c1nnn[nH]1)C2" | Cmax: 1990

----------
- tgt: Leukotriene B4 receptor 2 (Homo sapiens, UniProt Q9NPC1)
- Sequence (Q9NPC1 whole entry): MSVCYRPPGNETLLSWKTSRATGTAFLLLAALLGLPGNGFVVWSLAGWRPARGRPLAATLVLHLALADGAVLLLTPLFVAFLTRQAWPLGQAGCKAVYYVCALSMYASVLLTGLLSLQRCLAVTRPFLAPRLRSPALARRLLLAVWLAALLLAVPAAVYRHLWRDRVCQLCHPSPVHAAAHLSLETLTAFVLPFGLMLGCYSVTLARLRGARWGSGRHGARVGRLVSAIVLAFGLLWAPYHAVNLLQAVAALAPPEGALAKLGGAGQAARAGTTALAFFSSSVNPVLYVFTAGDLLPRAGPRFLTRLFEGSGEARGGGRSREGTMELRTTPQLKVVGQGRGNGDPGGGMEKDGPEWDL
- assay-explanation: Displacement of FITC-labeled tracer from Lumi4 Tb-labeled BLT2 (unknown origin) expressed in CHO-K1 cells incubated for 1 hrs by Tag-lite displacement based HTRF assay
readout-kind: pIC50
The scale used: pIC50 is minus the common logarithm of the concentration in molar units.

Item: "CCCCC(=O)N(Cc1ccc(-c2ccccc2C(=O)O)cc1)c1ccccc1" | pIC50: 7.20
